Form field: pIC50 (one value per entry).
Molecular target: Adenosylhomocysteinase (Homo sapiens)
Sequence (P23526 whole entry): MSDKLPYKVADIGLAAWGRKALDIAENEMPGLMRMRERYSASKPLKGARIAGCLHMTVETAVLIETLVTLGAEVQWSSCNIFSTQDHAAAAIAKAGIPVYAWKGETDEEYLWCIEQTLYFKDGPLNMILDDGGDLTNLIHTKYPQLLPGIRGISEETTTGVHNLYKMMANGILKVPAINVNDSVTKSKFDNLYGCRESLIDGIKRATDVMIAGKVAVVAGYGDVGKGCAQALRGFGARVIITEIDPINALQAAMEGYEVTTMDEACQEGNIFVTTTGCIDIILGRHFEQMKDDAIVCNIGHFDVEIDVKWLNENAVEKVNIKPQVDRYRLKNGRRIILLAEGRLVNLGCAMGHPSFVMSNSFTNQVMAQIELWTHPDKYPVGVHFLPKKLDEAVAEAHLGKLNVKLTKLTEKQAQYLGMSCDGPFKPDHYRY
Assay: Tested for inhibitory concentration against S-adenosyl-homocysteine hydrolase
Here pIC50 is given on a logarithmic scale as minus log10 of the concentration in mol/L.

Sample answers from the record:
Nc1ncnc2c1ncn2C[C@H](O)CO [(S)-DHPA] | 6.55
Nc1ncnc2c1ncn2[C@@H]1C=C(CO)[C@@H](O)[C@H]1O | 8.14

Please find the next molecule below.
Notebook: Nc1ccnc2c1ncn2[C@@H]1C[C@H](CO)[C@@H](O)[C@H]1O , pIC50 read as 7.74
